# subject of test: unphosphorylated VEGF-R2Δ50 (FLVK) (Homo sapiens, UniProt P35968, DEL940-989/E990V)
# Construct: VEGF-R2Δ50 contains residues 806–939 and 990–1171; made in house; host or cells: baculovirus/insect cell system
# Sequence (P35968 with tags, fused parts or gaps DEL940-989/E990V limits assumed): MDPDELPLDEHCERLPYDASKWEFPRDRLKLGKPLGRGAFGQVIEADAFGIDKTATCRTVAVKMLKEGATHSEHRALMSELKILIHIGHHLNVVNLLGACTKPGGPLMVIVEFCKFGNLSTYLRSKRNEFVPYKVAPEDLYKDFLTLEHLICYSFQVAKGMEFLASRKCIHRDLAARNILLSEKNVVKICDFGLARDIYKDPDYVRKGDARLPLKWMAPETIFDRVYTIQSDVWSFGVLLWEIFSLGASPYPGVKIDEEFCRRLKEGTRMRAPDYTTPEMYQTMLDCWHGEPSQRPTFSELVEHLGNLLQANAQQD
# experimental details: VEGF-R2 coupled spectrophotometric assay, unphosphorylated VEGF-R2Δ50 (FLVK)
# Type: biochemical
# measurement conditions: 50 nM compound; unphosphorylated VEGF-R2Δ50; read-out: FLVK (% inh @ 50 nM)
# Method: VEGF-R2 Construct for Assay: This construct determines the ability of a test compound to inhibit tyrosine kinase activity. […] The production of ADP from ATP that accompanies phosphoryl transfer was coupled to oxidation of NADH using phosphoenolpyruvate (PEP) and a system having pyruvate kinase (PK) and lactic dehydrogenase (LDH). The oxidation of NADH was monitored by following the decrease of absorbance at 340 nm (e340=6.22 cm^−1 mM^−1) using a Beckman DU 650 spectrophotometer. […]
experimental endpoint: inhibition at 0.05 µM (%)

In the examples that follow, each entry is paired with its recorded inhibition at 0.05 µM.
compound	value reported
CNC(=O)c1c(C)n(C)c2cc(Oc3ccnc4cc(C(=O)N5CCC5)sc34)ccc12 [Example 25]	70
Cc1oc2cc(Oc3ccnc4ccsc34)ccc2c1C(=O)NCCC1CCCN1C (centres unmarked) [Example 110]	21
Cc1c(C(=O)NCCCO)c2ccc(Oc3ccnc4cc(C(=O)N5CC[C@@H](O)C5)sc34)cc2n1C [Example 64]	64
Cc1sc2cc(Oc3ccnc4cc(C(=O)N5CCC5)sc34)ccc2c1C(=O)NC1CC1 [Example 127]	100
CNC(=O)c1c(C)oc2cc(Oc3ccnc4cc(-c5nccn5C)sc34)ccc12 [Example 13]	97
COC[C@@H]1CCCN1C(=O)c1cc2nccc(Oc3ccc4c(C(=O)NC(C)C)c(C)oc4c3)c2s1 [Example 82]	89

1 = COC[C@@H]1CCCN1C(=O)c1cc2nccc(Oc3ccc4c(C(=O)NCC(C)C)c(C)oc4c3)c2s1 (stereo in doubt) [Example 85]
2 = CNC(=O)c1c(C)n(C)c2cc(Oc3ccnc4cc(C(=O)N(C)CCCN(C)C)sc34)ccc12 [Example 32]
Task: Between item 1 and item 2 , which reported inhibition at 0.05 µM is smaller? Selection: enter the item's label.
Output: 2
